assay target: T1, human IL-33 (R&D Systems, #3625-IL-010/CF) (human, UniProt O95760 112-270)
T1 construct: Commercial recombinant protein; also called hIL-33; interleukin-33
T1 sequence (looked up): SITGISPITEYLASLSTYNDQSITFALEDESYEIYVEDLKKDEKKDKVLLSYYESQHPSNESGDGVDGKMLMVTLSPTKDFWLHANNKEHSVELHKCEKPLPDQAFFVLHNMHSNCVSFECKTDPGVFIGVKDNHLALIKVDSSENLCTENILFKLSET
method: BLI; hIL-33 pre-mixed with mAb-2 H1M9565N
Here, each record is paired with measured mAb-1 Binding to the Pre-complex of mAb-2 & hIL-33 data.
Please respond with the number in nm and leave the unit unwritten.

Example cases with answers are listed next.
binder	value unit	value
H4H9663P (antibody, human IgG4, V domains shown, Human IgG4 Fc (H4H)) VH: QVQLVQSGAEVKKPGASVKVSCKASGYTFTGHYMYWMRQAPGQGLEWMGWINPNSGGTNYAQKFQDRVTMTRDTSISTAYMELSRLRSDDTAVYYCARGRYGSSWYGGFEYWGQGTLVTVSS VL: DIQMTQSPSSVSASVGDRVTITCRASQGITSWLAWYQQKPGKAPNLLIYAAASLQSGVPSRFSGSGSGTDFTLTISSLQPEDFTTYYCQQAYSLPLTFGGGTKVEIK	nm	0.54
H1M9568N (antibody, mouse IgG1, V domains shown, Human variable domains, mouse IgG1 Fc (H1M)) VH: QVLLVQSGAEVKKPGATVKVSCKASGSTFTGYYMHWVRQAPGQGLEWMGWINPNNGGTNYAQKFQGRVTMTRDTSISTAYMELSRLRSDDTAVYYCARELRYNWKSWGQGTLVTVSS VL: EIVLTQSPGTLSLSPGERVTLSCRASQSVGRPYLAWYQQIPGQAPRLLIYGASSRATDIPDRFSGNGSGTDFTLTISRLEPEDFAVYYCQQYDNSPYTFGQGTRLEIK	nm	0.08
H1M9566N (antibody, mouse IgG1, V domains shown, Human variable domains, mouse IgG1 Fc (H1M)) VH: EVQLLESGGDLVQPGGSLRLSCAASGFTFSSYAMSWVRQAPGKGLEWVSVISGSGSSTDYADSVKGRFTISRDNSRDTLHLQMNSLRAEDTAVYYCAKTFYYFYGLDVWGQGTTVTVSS VL: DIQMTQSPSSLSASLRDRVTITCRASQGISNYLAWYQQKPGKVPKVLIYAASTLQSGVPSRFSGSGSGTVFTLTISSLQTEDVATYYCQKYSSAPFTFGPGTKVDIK	nm	0.17

Note: attention shifts to another entry.
IN: Item under review: H4H9633P (antibody, human IgG4, V domains shown, Human IgG4 Fc (H4H)) VH: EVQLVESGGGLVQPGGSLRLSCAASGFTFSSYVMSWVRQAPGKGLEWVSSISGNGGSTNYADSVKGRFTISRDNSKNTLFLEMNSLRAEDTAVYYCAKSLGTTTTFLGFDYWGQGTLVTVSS VL: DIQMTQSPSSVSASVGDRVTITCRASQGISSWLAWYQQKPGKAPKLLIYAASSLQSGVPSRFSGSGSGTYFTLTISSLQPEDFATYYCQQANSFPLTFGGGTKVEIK . Reported mAb-1 Binding to the Pre-complex of mAb-2 & hIL-33?
OUT: 0.66

Cited source: patent US20160362487A1
